# study.target: Cannabinoid receptor 1 (Homo sapiens, UniProt P21554)
# Sequence (P21554 whole entry): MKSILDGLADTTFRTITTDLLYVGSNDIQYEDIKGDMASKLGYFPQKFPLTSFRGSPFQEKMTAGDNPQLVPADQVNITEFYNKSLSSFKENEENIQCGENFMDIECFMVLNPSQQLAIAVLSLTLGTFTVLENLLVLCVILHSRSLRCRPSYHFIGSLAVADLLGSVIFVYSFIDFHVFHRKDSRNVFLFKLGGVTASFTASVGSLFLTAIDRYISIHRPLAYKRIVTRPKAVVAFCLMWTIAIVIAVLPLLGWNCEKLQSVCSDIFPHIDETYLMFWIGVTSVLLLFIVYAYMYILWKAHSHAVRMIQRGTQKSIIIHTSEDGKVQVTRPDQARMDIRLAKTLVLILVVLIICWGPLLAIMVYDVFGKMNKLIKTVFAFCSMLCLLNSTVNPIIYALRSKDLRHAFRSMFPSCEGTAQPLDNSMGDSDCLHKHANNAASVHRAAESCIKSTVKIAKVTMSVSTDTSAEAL
# experimental.protocol: Binding affinity to human recombinant CB1 receptor
pIC50: −log10 of the molar value.
endpoint.name: pIC50

- O=C(Oc1cccc2cccnc12)c1cccc(S(=O)(=O)N2CCCC2)c1: 6.80
- COc1ccc(C(=O)Oc2cccc3cccnc23)cc1S(=O)(=O)N1CCOCC1: 7.40
- O=C(Oc1cccc2cccnc12)c1cccc(S(=O)(=O)N2CCCCC2)c1: 7.80
- O=C(Nc1ccc(Cl)c(S(=O)(=O)N2CCOCC2)c1)c1cccc2ccccc12: 6.40

###

# study.target: Cannabinoid receptor 1 (Homo sapiens)
# experimental.protocol: Agonist activity at human recombinant CB1 receptor expressed in CHO cells by [35S]GTP-gamma-S binding assay
A collection of molecules and their measured EC50
endpoint.name: EC50 (nM)

* Cc1ccc(C(=O)Oc2ccccc2Br)cc1S(=O)(=O)N1CCOCC1 | 398
* O=C(Nc1ccc(Cl)c(S(=O)(=O)N2CCOCC2)c1)c1cccc2ccccc12 | 794
* O=C(Nc1ccc(Cl)c(S(=O)(=O)N2CCOCC2)c1)c1ccccc1 | 631
* O=C(Nc1ccccc1O)c1ccc(Cl)c(S(=O)(=O)N2CCCCCC2)c1 | 1260
* Cc1ccc(NC(=O)c2cccc(C#N)c2)cc1S(=O)(=O)N1CCOCC1 | 5010
* O=C(Oc1cccc2cccnc12)c1cccc(S(=O)(=O)N2CCCCCC2)c1 | 200
* O=C(Oc1cccc2cccnc12)c1cccc(S(=O)(=O)N2CCCC2)c1 | 631

These measurements were taken from ChEMBL document CHEMBL1138374.
